target: human Nectin-4 (protein used in the SPR affinity measurements) (human) (UniProt Q96NY8)
Sequence (Q96NY8 32-349 limits assumed): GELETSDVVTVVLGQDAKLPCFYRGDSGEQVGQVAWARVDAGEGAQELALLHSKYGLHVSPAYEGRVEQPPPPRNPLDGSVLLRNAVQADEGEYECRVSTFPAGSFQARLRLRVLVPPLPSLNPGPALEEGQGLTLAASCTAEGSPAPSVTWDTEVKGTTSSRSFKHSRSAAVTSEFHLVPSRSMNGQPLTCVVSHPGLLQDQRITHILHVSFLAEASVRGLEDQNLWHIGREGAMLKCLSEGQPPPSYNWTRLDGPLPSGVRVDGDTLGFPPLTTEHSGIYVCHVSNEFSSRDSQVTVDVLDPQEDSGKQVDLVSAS
protocol: SPR, human IgG1
propertyLabel: Kd (nM)
One number for each entry, in nM.

Item under review: H3L2 (antibody, human IgG1, V domains shown, human IgG1 isotype) VH: QVQLVQSGAEVKKPGASVKVSCKASGYIFTSYWMHWVRQAPGQGLEWMGEIDPSDSYTNYNQKFKGRVTMTLDKSTSTTYMELSSLRSEDTAVYYCARGYGNYGDYWGQGTLVTVSS VL: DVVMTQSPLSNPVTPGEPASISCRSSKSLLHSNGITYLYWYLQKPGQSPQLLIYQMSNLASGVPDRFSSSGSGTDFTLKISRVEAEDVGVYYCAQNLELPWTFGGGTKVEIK . Reported Kd?
25.9

Let us examine a further case.
State the recorded Kd for this entry: H7L3 (antibody, human IgG1, V domains shown, human IgG1 isotype) VH: QVQLVQSGAEVKKPGASVKVSCKASGYIFTSYWMHWVKQRPGQGLEWIGEIDPSDSYTNYNQKFKGRVTLTLDKSTSTTYMELSSLRSEDTAVYYCARGYGNYGDYWGQGTLVTVSS VL: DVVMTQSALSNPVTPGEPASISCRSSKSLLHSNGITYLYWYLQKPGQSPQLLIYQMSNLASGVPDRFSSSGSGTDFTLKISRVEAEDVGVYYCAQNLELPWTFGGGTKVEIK
49
